This listing pairs compounds with measured log10 of EC50.
# Tested on: Human immunodeficiency virus 1
# method-description: Tested in vitro for anti HIV-1 activity against PBM cells
# Assay type: functional, organism-based
# details: Human immunodeficiency virus 1, PBMC
// do not treat as linear: log10 of EC50, unit µM

| compound | log10 of EC50 |
| --- | --- |
| Nc1nc(=O)n([C@@H]2C=C[C@@H](CO)O2)cc1F | 1.30 |
| O=C1NC(O)C(F)=CN1[C@H]1C=C[C@@H](CO)O1 (stereo partly specified) | 0.90 |
| CCCC(=O)OC[C@@H]1C=C[C@H](n2cc(F)c(N)nc2=O)O1 | -0.82 |
| CCCCC(=O)OC[C@@H]1C=C[C@H](n2cc(F)c(N)nc2=O)O1 | -1.25 |
| O=c1[nH]c(=O)n([C@@H]2C=C[C@H](CO)O2)cc1F | -0.59 |

Reported log10 of EC50 for `Nc1nc(=O)n([C@@H]2C=C[C@H](CO)O2)cc1F` was -1.47

Reported log10 of EC50 for `Nc1nc(=O)n([C@H]2C=C[C@@H](CO)O2)cc1F` was -1.34

Reported log10 of EC50 for Nc1ccn(C2C=CC(CO)C2)c(=O)n1 (stereo unspecified) was 0.95
